meta.source: PubChem BioAssay (NCI)

Tested on: MALME-3M melanoma
Assay Explanation: NCI-60 one-dose screen, 48 h (100 = growth as untreated, 0 = no growth, -100 = all killed)
Reported Conditions: 10 µM unless noted
Compounds without any hit were thinned out: in the full panel of roughly 83,000, 20% have a hit.
Readout Type: growth (%)
A number alone suffices; assume %.

API: value(readout=growth, system=MALME-3M melanoma) for record `CCOC(=O)Nc1ccc(-c2nc(-c3cccc(OC)c3)c(-c3ccnc(Br)c3)[nH]2)cc1`
40.5

API: value(readout=growth, system=MALME-3M melanoma) for record `C=C1CC[C@@]2(C#N)[C@H]3[C@H](CC[C@@H]2C)[C@@H](C)C[C@@H](CC(C)(C)C#N)[C@H]13`
103

API: value(readout=growth, system=MALME-3M melanoma) for record Cc1cc(O)c(C2=NN(c3ccc(S(N)(=O)=O)cc3)C(/C=C/c3ccccc3)C2)cc1Cl (stereo not given)
24.6

API: value(readout=growth, system=MALME-3M melanoma) for record O=C1CSC(c2c(Cl)cccc2Cl)N1c1nc(Cl)cc(=O)[nH]1 (stereo not given)
216

API: value(readout=growth, system=MALME-3M melanoma) for record `Cc1cc(Cl)ccc1NS(=O)(=O)c1ccc(-c2cnc(C3CC3)o2)cc1`
68

API: value(readout=growth, system=MALME-3M melanoma) for record `COc1ccc(-c2cc(-c3cc(OC)c(OC)c(OC)c3)nc(N3CCOCC3)c2C#N)cc1`
126

API: value(readout=growth, system=MALME-3M melanoma) for record CCN(CC)c1ccc(C2=NN(C(C)=O)C(c3cc(OC)c(OC)c(OC)c3)C2)cc1 (stereo not given)
21.7

API: value(readout=growth, system=MALME-3M melanoma) for record C=C(C)C1CCC2(C)OC2C1 (stereo not given)
95.7

API: value(readout=growth, system=MALME-3M melanoma) for record `Cc1ccc(C(=O)N/N=C/c2cccc(Oc3ccccc3)c2)cn1`
64.8

API: value(readout=growth, system=MALME-3M melanoma) for record `COc1cccc2c(=O)c3c(sc12)c(NCCCN)nc1ccccc13`
90.9

API: value(readout=growth, system=MALME-3M melanoma) for record `O=C1CN(CCN2CC(=O)N(Cc3ccccc3)C(=O)C2)CC(=O)N1Cc1ccccc1`
103

API: value(readout=growth, system=MALME-3M melanoma) for record `COc1cc(/C=C2\C(=O)Nc3ccc(Br)cc32)cc(OC)c1OC`
88.6

API: value(readout=growth, system=MALME-3M melanoma) for record `CNCCCNc1nc2ccccc2c2c(=O)c3cc(OC)ccc3sc12`
99.4

API: value(readout=growth, system=MALME-3M melanoma) for record CCN1C(=O)N(CC)C2Nn3c(s/c(=C4\C(=O)N(CC(C)C)c5ccccc54)c3=O)=NC21 (stereo not given)
70

API: value(readout=growth, system=MALME-3M melanoma) for record `Cc1ccc(S(=O)(=O)N/N=C/C2(c3ccccc3)CC2)cc1`
110

API: value(readout=growth, system=MALME-3M melanoma) for record `Cc1cccc2c1S/C(=C/c1ccc([N+](=O)[O-])cc1)C2=O`
99.4

API: value(readout=growth, system=MALME-3M melanoma) for record CC1=C([Se]CC(OC(=O)[C@@H](CSSC(C)(C)C)NC(=O)OC(C)(C)C)C(=O)NC(C)(C)C)C(=O)c2ccccc2C1=O (stereo not given in full)
-65.8

API: value(readout=growth, system=MALME-3M melanoma) for record `CCN(CC)CCCNc1nc2ccccc2c2c(=O)c3cc(Cl)ccc3sc12`
84.6

API: value(readout=growth, system=MALME-3M melanoma) for record `CCCCCCn1c(-c2ccc(C(=O)O/N=C(\N)c3ccc4ccccc4c3)cc2)nc(-c2ccccc2)c1-c1ccccc1`
71.5

API: value(readout=growth, system=MALME-3M melanoma) for record `CSc1ccc2c(c1)c(CCN)c(C)n2Cc1ccc(Cl)c(Cl)c1`
-75.4

====

Answer each item with its documented growth.
Test system: MDA-MB-231 breast
Assay Explanation: NCI-60 one-dose screen, 48 h (100 = growth as untreated, 0 = no growth, -100 = all killed)
Reported Conditions: 10 µM unless noted
Experimental: Cells are grown in 96 well plates and exposed to the test compound for 48 hours. Compounds are tested at a single concentration, which is 10^-5 M for most compounds. The reported endpoint is percent growth (GI% or GIPRCNT), where numbers from 0 - 100% represent growth inhibition, and numbers from -100% - 0 represent cell death. For example, a value of 40 represents 60% growth inhibition. A value of 0 means no net growth occurred over the course of the experiment. […]
The panel holds about 83,000 compounds, 20% with a hit somewhere; the sample as a whole holds those more often.
A number alone suffices; assume %.

Reported growth for Cc1cc(O)c(C2=NN(c3ccc(S(N)(=O)=O)cc3)C(c3ccccc3O)C2)cc1Cl (stereo not drawn) : what is it?
4.16

Reported growth for `Cc1cc(-c2cc(C)c(N)cc2C)c(C)cc1N` : what is it?
82.8

Reported growth for `C=C1C(=O)O[C@H]2[C@H]1CC/C(COC(=O)CCC(=O)NCCOCCOCC(=O)Nc1ccc(OC)c(C(N)=O)c1O)=C\CC[C@@]1(C)O[C@@H]21` : what is it?
95.2

Reported growth for `O=C1c2cccc3cccc(c23)C(=O)N1Nc1nc(N2CCOCC2)nc(N2CCN(c3ccccc3)CC2)n1` : what is it?
56.3

Reported growth for `Cc1nn(-c2ccccc2)c(-n2ccnc2)c1/C=N/Nc1nc(-c2ccc(Cl)c(Cl)c2)cs1` : what is it?
6.68

Reported growth for `CCc1ccc(Oc2c(-c3ccc(OCc4ccc(Cl)cc4)cc3O)nn(C)c2C(F)(F)F)cc1` : what is it?
-55.7

Reported growth for `Cc1c(C(=O)NCCN2CCOCC2)cn2ncnc(Oc3ccc(NC(=O)Nc4ccc(Cl)c(C(F)(F)F)c4)cc3)c12` : what is it?
7.21

Reported growth for `COc1cc2oc(-c3ccc(O)cc3)cc(=O)c2c(O)c1-c1c(OC)cc(O)c2c(=O)cc(-c3ccc(O)cc3)oc12` : what is it?
48.5

====

Tested on: HOP-92 NSCLC
Assay Explanation: NCI-60 one-dose screen, 48 h (100 = growth as untreated, 0 = no growth, -100 = all killed)
Reported Conditions: 10 µM unless noted
Experimental: Growth inhibition of the HOP-92 human Non-Small Cell Lung tumor cell line is measured as a screen for anti-cancer activity. Cells are grown in 96 well plates and exposed to the test compound for 48 hours. Compounds are tested at a single concentration, which is 10^-5 M for most compounds. The reported endpoint is percent growth (GI% or GIPRCNT), where numbers from 0 - 100% represent growth inhibition, and numbers from -100% - 0 represent cell death. […]
The panel holds about 83,000 compounds, 20% with a hit somewhere; the sample as a whole holds those more often. Active and inactive are the calls of the source. The calls were made as follows: active = growth percent below 10; inactive = the rest.
Answer each item with its documented growth.

Reported growth for COc1ccc2cc(C(C)C(=O)Nc3ccc(-c4n[nH]c(=S)n4C4CCCCC4)cc3)ccc2c1 (stereo not given) : what is it?
43.4% (inactive)

Reported growth for `Cc1ccc(-c2nc(N3CCN(CC(=O)Nc4ccc(Cl)cc4)CC3)c3ccccc3n2)cc1` : what is it?
114% (inactive)

Reported growth for `O=c1c2cccc(Cl)c2sc2c(NCCCNCCO)nc3ccccc3c12` : what is it?
-0.275% (active)

Reported growth for Cc1ccc(C(=O)NN2C(=O)CSC2c2ccc(Cl)cc2)cn1 (stereo not given) : what is it?
71.1% (inactive)

Reported growth for `COc1ccc(C(=O)/C=C/c2sc(Cl)nc2Cl)cc1` : what is it?
32.8% (inactive)

====

Tested on: COLO 205 colon
Assay Explanation: NCI-60 one-dose screen, 48 h (100 = growth as untreated, 0 = no growth, -100 = all killed)
Reported Conditions: 10 µM unless noted
The panel holds about 83,000 compounds, 20% with a hit somewhere; the sample as a whole holds those more often. Active and inactive are the calls of the source. How the source made its calls: active means growth percent below 10; inactive means the rest.
Readout Type: growth

Reported growth for `COc1ccc(CNC(=O)C(=O)[C@H](Cc2ccccc2)NC(=O)c2[nH]c3ccccc3c(=O)c2C)cc1` : what is it?
113% (inactive)

Reported growth for `Cc1nc2ccccc2c(/C=C/c2ccc(Cl)cc2)c1C(=O)/C=C/c1cccs1` : what is it?
82% (inactive)

Reported growth for `O=C(Nn1c(NCC(=O)N2c3ccccc3Sc3ccccc32)nnc1-c1ccc(O)cc1)c1ccccc1` : what is it?
112% (inactive)

Reported growth for `COc1ccc(NC2=C(Br)C(=O)C(C)=C(C)C2=O)cc1` : what is it?
115% (inactive)

Reported growth for `COc1ccc(S(=O)(=O)n2c3ccccc3n3ncc(-c4nnc(C)o4)c23)cc1` : what is it?
7.03% (active)

Reported growth for `COc1cc(C(=O)c2cnc(-c3cccc4[nH]ccc34)[nH]2)cc(OC)c1OC` : what is it?
-36.9% (active)

Reported growth for `Cc1ncc(C(=O)Nc2ccc(CN3CCN(C)CC3)c(C(F)(F)F)c2)cc1C#Cc1ccc(N)nc1` : what is it?
5.35% (active)

Reported growth for `N#Cc1c(-c2ccccc2)nc(SCC(=O)Nc2nc(-c3ccc(Cl)cc3)cs2)[nH]c1=O` : what is it?
106% (inactive)

Reported growth for `COc1cc(/C=C/c2ccccc2)cc(OC)c1` : what is it?
114% (inactive)

Reported growth for CNc1nc2c(s1)C(c1cccc(F)c1)CC(=O)N2 (stereo unspecified) : what is it?
110% (inactive)

Reported growth for `CCOc1c(B(O)O)cccc1-c1nc2ccc3[nH]ncc3c2c2c1CCCC2` : what is it?
48.6% (inactive)

Reported growth for COc1ccc(C2C(C#N)=C(N)Oc3c2sc2c(C)cccc32)cc1 (stereo unspecified) : what is it?
0.625% (active)

Reported growth for N#CC1=C(N)Oc2c(sc3c(Br)cccc23)C1c1ccc([N+](=O)[O-])cc1 (stereo unspecified) : what is it?
-49.7% (active)

Reported growth for `CCOc1ccc2nc(SCc3nc4n(n3)S(=O)(=O)c3ccccc3N4C)sc2c1` : what is it?
23.3% (inactive)

Reported growth for `CNCCCNc1nc2ccccc2c2c(=O)c3cc(OC)ccc3sc12` : what is it?
-1.42% (active)

Reported growth for `CCOC(=O)c1cn2ncnc(Oc3ccc(NC(=O)NCCN(CC)CC)c(Cl)c3)c2c1C` : what is it?
57.2% (inactive)

Reported growth for C=CCc1cc(C)ccc1NC(C(=O)NCC(=O)OC)c1ccccc1 (stereo unspecified) : what is it?
100% (inactive)

Reported growth for `Cc1ccc2sc3c(NCCN)nc4ccccc4c3c(=O)c2c1` : what is it?
-21.7% (active)

Reported growth for `O=C(Nc1ccc(Cl)cc1F)c1ccccc1O` : what is it?
98.2% (inactive)

Reported growth for `CCCCCCCCCCCCCCCCCCOc1ccc(CC(=O)OCC[N+]2(C)CCCCC2)cc1` : what is it?
103% (inactive)

Reported growth for COc1cc(OCc2cccc(-c3ccc(C(O)c4nccs4)cc3)c2C)cc(OC)c1CNCCNC(C)=O (stereo unspecified) : what is it?
104% (inactive)
